Listed here: items and their measured normalized growth.
- Method Description: chemical genetic growth profiling, strain panel (AID 1159580);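 also: tested at 20 µM; growth read once vehicle control cultures reached saturation at 30 °C; 1 = growth at the plate median or of vehicle wells; lower values mean less growth of the strain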
- Measurement Context: S. cerevisiae deletion strains, growth OD, locus YDR502C, strain sam2, stronger effect = lower value
Among all 5,500 compounds or so, about 2,000 (36%) were called active. Inconclusive results (about 18%) are left out. Some of the results follow. Where a SMILES comes first, the peptide text is derived from it. Bridges are numbered along the chain shown (N, C = ends). [ ]: non-standard residue; d: D form. The star is where a group is joined. Octanoyl(6-Me) = CCC(C)CCCCC(=O)*; Dab = NCC[CH](N)C(=O)O
Quick one: just the number, no unit, thanks!

Compound | normalized growth
NCC1OC(OC2C(CO)OC(OC3C(O)C(N)CC(N)C3OC3OC(CO)C(O)CC3N)C2O)C(N)C(O)C1OC1OC(CO)C(O)C(O)C1O (stereo unspecified) | 0.988
NC1CC1c1ccccc1 (stereo unspecified) | 0.995
COc1ccc(C(=O)O)c(O)c1OC | 0.994
NC(=O)NO | 0.989
O=c1[nH]cnc2c1ncn2C1O[C@H](CO)[C@@H](O)[C@H]1O (stereo partly specified) | 1.02
C#CC1(O)CCC2C3CCC4=CC(=O)CCC4(C)C3CCC21C (stereo unspecified) | 0.985
CCC(C)CCCCC(=O)NC(CCN)C(=O)NC(C(=O)NC(CCN)C(=O)NC1CCNC(=O)C(C(C)O)NC(=O)C(CCN)NC(=O)C(CCN)NC(=O)C(CC(C)C)NC(=O)C(Cc2ccccc2)NC(=O)C(CCN)NC1=O)C(C)O (stereo unspecified) ({Octanoyl(6-Me)}-[Dab]T[Dab][Dab][Dab]FL[Dab][Dab]T; lactam 4-C; configuration not given here) | 0.997
CCOc1ccc(NC(C)=O)cc1 | 0.994

Please give the measured normalized growth for this compound: `COc1ccc2c(c1OC)OC[C@@H](c1ccc(OC)c(OC)c1OC)C2` 0.996

Quick one: `CC(=O)NO` 0.973

Can you handle CC(=O)OCC(=O)[C@@]12OC3(CCCC3)O[C@@H]1CC1C3CCC4=CC(=O)C=C[C@]4(C)[C@@]3(F)[C@@H](O)C[C@@]12C (stereo partly specified) next? 1.02

Then this compound: `CCOc1ccc(C(=O)c2cc(O)c(OC)c(OC)c2O)cc1` 1.02

Please answer likewise for `COc1ccc([C@H]2COc3c(ccc(O)c3OC)C2)c(OC)c1O` 0.977
